The measurements presented in this section are drawn from PubChem BioAssay (NCI).

Tested on: CAKI-1 renal
Protocol: NCI-60 one-dose screen, 48 h (100 = growth as untreated, 0 = no growth, -100 = all killed)
Condition description: 10 µM unless noted
Compounds without any hit were thinned out: in the full panel of roughly 83,000, 20% have a hit.
Binary label based on growth with cut-off 90%: below gives Criterion met, not below gives Criterion not met.

Compound	Experimental system	Category label
C=CCn1c(C)nc2cc(Nc3nc(Nc4ccc5nc(C)n(CC=C)c5c4)nc4ccccc34)ccc21	CAKI-1 renal	Criterion not met

Query string: Here's an entry: `COc1ccc(-c2cn(-c3cccc(C(=O)/C=C/c4ccc(O)c(OC)c4)c3)c(=O)[nH]2)cc1` . Is its growth below 90%?
Result string: Criterion met

Query string: Here's an entry: COc1ccc(C2CC(c3ccc(Nc4ccnc5cc(Cl)ccc45)cc3)=NN2c2ccccc2)cc1 (stereo not given) . Is its growth below 90%?
Result string: Criterion met

Query string: Here's an entry: COc1ccc(C(=O)C(C#N)c2cc(OC)c(OC)c(OC)c2)cc1 (stereo not given) . Is its growth below 90%?
Result string: Criterion not met

Query string: Here's an entry: `CC(C)(C)c1ccc(Cn2c(-c3nonc3N)nc3ccccc32)cc1` . Is its growth below 90%?
Result string: Criterion met

Query string: Here's an entry: COc1cc2c(cc1OC)C(=O)C(Br)CC2 (stereo not given) . Is its growth below 90%?
Result string: Criterion met

Query string: Here's an entry: CC(CN1CCN(C)CC1)CN1c2ccccc2Sc2ccc(C(F)(F)F)cc21 (stereo not given) . Is its growth below 90%?
Result string: Criterion met

Query string: Here's an entry: `O=C(Cn1nncc1CN1C(=O)CSC1=O)Nc1ccc(F)cc1` . Is its growth below 90%?
Result string: Criterion not met
